conditions: rat, in vivo, sc, 50 mg/kg
e = 2'-O-(2-methoxyethyl) (MOE); d = 2'-deoxy (DNA)
Label scheme for ALT: lower than 100 IU/L is f, 100 IU/L and above is t.

Query string: In plain terms: is recorded ALT at least 100 IU/L for ISIS 416825: 5-10-5 MOE gapmer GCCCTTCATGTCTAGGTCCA (sugars from the 5' end e5 d10 e5, backbone and methylation of C not given here) ?
Result string: f

Next:
Query string: In plain terms: is recorded ALT at least 100 IU/L for ISIS 416892: 3-14-3 MOE gapmer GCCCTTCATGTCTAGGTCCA (sugars from the 5' end e3 d14 e3, backbone and methylation of C not given here) ?
Result string: t

Query string: In plain terms: is recorded ALT at least 100 IU/L for ISIS 417003: MOE gapmer, nucleobases 1275 to 1318 of SEQ ID NO: 1 (Table 8) (antisense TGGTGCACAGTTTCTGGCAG; MOE gapmer, wing and gap sizes not given here) ?
Result string: t

Query string: In plain terms: is recorded ALT at least 100 IU/L for ISIS 416826: 5-10-5 MOE gapmer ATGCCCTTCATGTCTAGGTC (sugars from the 5' end e5 d10 e5, backbone and methylation of C not given here) ?
Result string: t

Query string: In plain terms: is recorded ALT at least 100 IU/L for ISIS 416999: MOE gapmer, nucleobases 1275 to 1318 of SEQ ID NO: 1 (Table 8) (antisense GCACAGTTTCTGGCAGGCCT; MOE gapmer, wing and gap sizes not given here) ?
Result string: f

* * *

test: Tolerability in CD1 mice: kidney function (Example 43); assay type: in vivo; conditions: 50 mg/kg s.c. twice per week for 6 weeks, plasma
Strand notation (5' to 3'): a small letter for the sugar, then the base; units joined by * are phosphorothioate-linked, units joined directly phosphodiester-linked; [ ] holds rarer units or linkages, { } end groups; capitals alone tell only the bases. e = 2'-O-(2-methoxyethyl) (MOE); [5mC] = 5-methylcytosine; d = 2'-deoxy (DNA)
endpoint: Creatinine (mg/dL)
// return numeric value only (unit: mg/dL, not printed)

Query string: So what's the measured Creatinine for this one? ISIS 449708: 3-8-3, 4-8-4, 2-10-2, 3-10-3 or 4-10-4 MOE microwalk gapmer (Table 46) (antisense eA*e[5mC]*eA*dG*dT*dT*dT*d[5mC]*dT*dG*dG*e[5mC]*eA*eG)
Result string: 0.2

Query string: So what's the measured Creatinine for this one? ISIS 449710: 3-8-3, 4-8-4, 2-10-2, 3-10-3 or 4-10-4 MOE microwalk gapmer (Table 46) (antisense e[5mC]*eA*e[5mC]*dA*dG*dT*dT*dT*d[5mC]*dT*dG*dG*d[5mC]*eA*eG*eG)
Result string: 0.2

Consider the additional substance presented here.
Query string: So what's the measured Creatinine for this one? ISIS 449707: 3-8-3, 4-8-4, 2-10-2, 3-10-3 or 4-10-4 MOE microwalk gapmer (Table 46) (antisense e[5mC]*eA*e[5mC]*eA*dG*dT*dT*dT*d[5mC]*dT*dG*dG*e[5mC]*eA*eG*eG)
Result string: 0.2

* * *

experiment: Hematology assays in cynomolgus monkeys (Example 45); format: in vivo; settings: day 8
endpoint: lymphocytes (%)
// return numeric value only (unit: %, not printed)

Query string: So what's the measured lymphocytes for this one? ISIS 417002: MOE gapmer, nucleobases 1275 to 1318 of SEQ ID NO: 1 (Table 8) (antisense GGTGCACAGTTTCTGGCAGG; MOE gapmer, wing and gap sizes not given here)
Result string: 50

Query string: So what's the measured lymphocytes for this one? ISIS 416850: MOE gapmer, nucleobases 1275 to 1318 of SEQ ID NO: 1 (Table 8) (antisense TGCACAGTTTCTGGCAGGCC; MOE gapmer, wing and gap sizes not given here)
Result string: 39

Query string: So what's the measured lymphocytes for this one? ISIS 416864: MOE gapmer, nucleobases 1275 to 1318 of SEQ ID NO: 1 (Table 8) (antisense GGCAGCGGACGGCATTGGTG; MOE gapmer, wing and gap sizes not given here)
Result string: 45

Query string: So what's the measured lymphocytes for this one? ISIS 416838: MOE gapmer, nucleobases 1018 to 1042 of SEQ ID NO: 1 (Table 6) (antisense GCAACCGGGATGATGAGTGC; MOE gapmer, wing and gap sizes not given here)
Result string: 54

Consider the additional substance presented here.
Query string: So what's the measured lymphocytes for this one? ISIS 416858: MOE gapmer, nucleobases 1275 to 1318 of SEQ ID NO: 1 (Table 8) (antisense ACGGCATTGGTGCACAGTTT; MOE gapmer, wing and gap sizes not given here)
Result string: 45

* * *

tested on: blood coagulation; assay: PT and aPTT assay in cynomolgus monkeys (Example 46); format: in vivo; settings: Day 52; platelet poor plasma; relative to PBS group
Strand notation (5' to 3'): a small letter for the sugar, then the base; units joined by * are phosphorothioate-linked, units joined directly phosphodiester-linked; [ ] holds rarer units or linkages, { } end groups; capitals alone tell only the bases. e = 2'-O-(2-methoxyethyl) (MOE); [5mC] = 5-methylcytosine; d = 2'-deoxy (DNA)
aPTT ratio relative to PBS group values, listed per item
// return just the number, without any unit appended

Query string: So what's the measured aPTT ratio relative to PBS group for this one? ISIS 416850: MOE gapmer, nucleobases 1275 to 1318 of SEQ ID NO: 1 (Table 8) (antisense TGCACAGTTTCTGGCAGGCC; MOE gapmer, wing and gap sizes not given here)
Result string: 1.32

Query string: So what's the measured aPTT ratio relative to PBS group for this one? ISIS 449711: 3-8-3, 4-8-4, 2-10-2, 3-10-3 or 4-10-4 MOE microwalk gapmer (Table 46) (antisense eA*e[5mC]*dA*dG*dT*dT*dT*d[5mC]*dT*dG*dG*d[5mC]*eA*eG)
Result string: 0.92

Query string: So what's the measured aPTT ratio relative to PBS group for this one? ISIS 449708: 3-8-3, 4-8-4, 2-10-2, 3-10-3 or 4-10-4 MOE microwalk gapmer (Table 46) (antisense eA*e[5mC]*eA*dG*dT*dT*dT*d[5mC]*dT*dG*dG*e[5mC]*eA*eG)
Result string: 1.08

Query string: So what's the measured aPTT ratio relative to PBS group for this one? ISIS 445522: 5-8-5 or 6-8-6 MOE microwalk gapmer (Table 44) (antisense eG*e[5mC]*eA*e[5mC]*eA*dG*dT*dT*dT*d[5mC]*dT*dG*dG*e[5mC]*eA*eG*eG*e[5mC])
Result string: 1.39

Query string: So what's the measured aPTT ratio relative to PBS group for this one? ISIS 449710: 3-8-3, 4-8-4, 2-10-2, 3-10-3 or 4-10-4 MOE microwalk gapmer (Table 46) (antisense e[5mC]*eA*e[5mC]*dA*dG*dT*dT*dT*d[5mC]*dT*dG*dG*d[5mC]*eA*eG*eG)
Result string: 1.03

* * *

percent inhibition of Factor 11 at 2.2 μM values, listed per item
tested on: human Factor 11 mRNA; experiment: Dose-dependent inhibition of human Factor 11 in HepG2 cells, electroporation 0.7-20 uM (Example 4); type: cell-based; conditions: 2.2 μM, relative to untreated control cells
Strand notation (5' to 3'): a small letter for the sugar, then the base; units joined by * are phosphorothioate-linked, units joined directly phosphodiester-linked; [ ] holds rarer units or linkages, { } end groups; capitals alone tell only the bases. e = 2'-O-(2-methoxyethyl) (MOE); [5mC] = 5-methylcytosine; d = 2'-deoxy (DNA)
// return numeric value only (unit: %, not printed)

Query string: So what's the measured percent inhibition of Factor 11 at 2.2 μM for this one? 416892 (antisense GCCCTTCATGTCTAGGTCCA; 3-14-3 chimeric gapmer, further chemistry not given here) [compound 416892]
Result string: 52

Query string: So what's the measured percent inhibition of Factor 11 at 2.2 μM for this one? 416973 (antisense eT*eT*dA*dT*dG*d[5mC]*d[5mC]*d[5mC]*dT*dT*d[5mC]*dA*dT*dG*dT*e[5mC]*eT*eA*eG*eG) [compound 416973]
Result string: 48

Query string: So what's the measured percent inhibition of Factor 11 at 2.2 μM for this one? 416856 (antisense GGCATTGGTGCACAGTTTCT; 5-10-5 gapmer, further chemistry not given here) [compound 416856]
Result string: 29

Query string: So what's the measured percent inhibition of Factor 11 at 2.2 μM for this one? 416827 (antisense eT*eA*eT*eG*e[5mC]*d[5mC]*d[5mC]*dT*dT*d[5mC]*dA*dT*dG*dT*d[5mC]*eT*eA*eG*eG*eT) [compound 416827]
Result string: 68

Next:
Query string: So what's the measured percent inhibition of Factor 11 at 2.2 μM for this one? 416984 (antisense e[5mC]*eA*dA*d[5mC]*d[5mC]*dG*dG*dG*dA*dT*dG*dA*dT*dG*dA*eG*eT*eG*e[5mC]*eA) [compound 416984]
Result string: 54

Query string: So what's the measured percent inhibition of Factor 11 at 2.2 μM for this one? 416908 (antisense eG*e[5mC]*eA*dA*d[5mC]*d[5mC]*dG*dG*dG*dA*dT*dG*dA*dT*dG*dA*dG*eT*eG*e[5mC]) [compound 416908]
Result string: 58

Query string: So what's the measured percent inhibition of Factor 11 at 2.2 μM for this one? 416838 (antisense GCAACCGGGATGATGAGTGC; 5-10-5 gapmer, further chemistry not given here) [compound 416838]
Result string: 30
